Recorded measurements of pEC50, one per entry
biological target: human CD96v2 expressed on cells (human) (UniProt P40200); experiment: flow cytometry, CHO cells expressing human CD96v2
pEC50: −log10 of the molar value.
Readout: pEC50

binder="42Y073-1A01-191 (antibody, V domains shown) VH: QVQLVQSGAEVKKPGASVKVSCKASGYTFTKYRMHWVRQAPGQGLEWMGIINPQGGSTSYAQKFQGRVTMTRDTSTSTVYMELSSLRSEDTAVYYCARETAYYTTKGNWFDPWGQGTLVTVSA VL: DIQMTQSPSSLSASVGDRVTITCRASQSISSYLNWYQQKPGKAPKLLIYAASSLQSGVPSRFSGSGSGTDFTLTISSLQPEDFATYYCQQSLYPPRTFGGGTKVEIK" value_reported=11.00
binder="42Y073-86F08-22 (antibody, V domains shown) VH: QVQLVQSGAEVKKPGASVKVSCKASGYTFDSYAMHWVRQAPGQGLEWMGGIIPIFGTAWYAQKFQGRVTITADESTSTAYMELSSLRSEDTAVYYCARGAGYYGDKDPMDVWGQGTTVTVSS VL: DIQLTQSPSSLSASVGDRVTITCRASQSISSYLNWYQQKPGKAPKLLIYAASSLQSGVPSRFSGSGSGTDFTLTISSLQPEDFATYYCQQVLHTITFGGGTKVEIK" value_reported=10.52
binder="42Y073-86F04-23 (antibody, V domains shown) VH: QVQLVQSGAEVKKPGSSVKVSCKASGGTFSGYPISWVRQAPGQGLEWMGGIIPIMGTARYAQKFQGRVTITADESTSTAYMELSSLRSEDTAVYYCARLLGESGMDVWGQGTTVTVSS VL: DIQMTQSPSSLSASVGDRVTITCRASQSISSYLNWYQQKPGKAPKLLIYAASSLQSGVPSRFSGSGSGTDFTLTISSLQPEDFATYYCQQPYFSPPTFGGGTKVEIK" value_reported=10.22
binder="42Y073-1A01-103 (antibody, V domains shown) VH: QVQLVQSGAEVKKPGASVKVSCKASGYTFTAYQMHWVRQAPGQGLEWMGIINPAGGWTSYAQKFQGRVTMTRDTSTSTVYMELSSLRSEDTAVYYCARETAYYTTKGNWFDPWGQGTLVTVSS VL: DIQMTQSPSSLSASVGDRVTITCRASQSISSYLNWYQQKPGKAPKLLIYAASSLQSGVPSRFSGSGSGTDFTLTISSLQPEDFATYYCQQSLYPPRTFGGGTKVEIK" value_reported=10.70
binder="42Y073-1A01-100 (antibody, V domains shown) VH: QVQLVQSGAEVKKPGASVKVSCKASGYTFTTYRMHWVRQAPGQGLEWMGIINPSGGLTQYAQKFQGRVTMTRDTSTSTVYMELSSLRSEDTAVYYCARETAYYTTKGNWFDPWGQGTLVTVSS VL: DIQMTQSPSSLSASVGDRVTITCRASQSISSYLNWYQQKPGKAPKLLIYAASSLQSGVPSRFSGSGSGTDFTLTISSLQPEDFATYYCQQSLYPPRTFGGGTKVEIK" value_reported=10.70
binder="42Y073-86F08-8 (antibody, V domains shown) VH: QVQLVQSGAEVKKPGSSVKVSCKASGGTFWLYAISWVRQAPGQGLEWMGGIIPQLGTANYAQKFQGRVTITADESTSTAYMELSSLRSEDTAVYYCARGAGYYGDKDPMDVWGQGTTVTVSS VL: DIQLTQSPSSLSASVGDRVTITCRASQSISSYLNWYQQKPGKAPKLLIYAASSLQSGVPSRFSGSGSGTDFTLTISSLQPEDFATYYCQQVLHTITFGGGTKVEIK" value_reported=9.77
binder="42Y073-1A01-97 (antibody, V domains shown) VH: QVQLVQSGAEVKKPGASVKVSCKASGYTFTRAAMHWVRQAPGQGLEWMGIINPAGGYTSYAQKFQGRVTMTRDTSTSTVYMELSSLRSEDTAVYYCARETAYYTTKGNWFDPWGQGTLVTVSS VL: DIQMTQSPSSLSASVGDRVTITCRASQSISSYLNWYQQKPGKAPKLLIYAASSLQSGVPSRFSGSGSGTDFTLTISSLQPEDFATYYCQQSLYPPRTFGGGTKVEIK" value_reported=9.11
binder="42Y073-1A01-126 (antibody, V domains shown) VH: QVQLVQSGAEVKKPGASVKVSCKASGYTFTRYNMHWVRQAPGQGLEWMGWINPAGGSTSYAQKFQGRVTMTRDTSTSTVYMELSSLRSEDTAVYYCARETAYYTTKGNWFDPWGQGTLVTVSA VL: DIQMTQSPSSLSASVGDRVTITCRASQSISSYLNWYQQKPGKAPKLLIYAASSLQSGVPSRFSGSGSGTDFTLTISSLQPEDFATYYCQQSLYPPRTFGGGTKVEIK" value_reported=10.70
binder="42Y073-86F08-47 (antibody, V domains shown) VH: QVQLVQSGAEVKKPGSSVKVSCKASGGTFSQYAIHWVRQAPGQGLEWMGVIIPIFGKANYAQKFQGRVTITADESTSTAYMELSSLRSEDTAVYYCARGAGYYGDKDPMDVWGQGTTVTVSS VL: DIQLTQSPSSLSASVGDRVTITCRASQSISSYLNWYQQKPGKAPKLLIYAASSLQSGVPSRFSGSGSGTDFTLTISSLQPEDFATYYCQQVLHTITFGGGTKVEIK" value_reported=10.30
binder="42Y073-86F08-16 (antibody, V domains shown) VH: QVQLVQSGAEVKKPGSSVKVSCKASGGTFNEYAISWVRQAPGQGLEWMGGIVPVFGTAKYAQKFQGRVTITADESTSTAYMELSSLRSEDTAVYYCARGAGYYGDKDPMDVWGQGTTVTVSS VL: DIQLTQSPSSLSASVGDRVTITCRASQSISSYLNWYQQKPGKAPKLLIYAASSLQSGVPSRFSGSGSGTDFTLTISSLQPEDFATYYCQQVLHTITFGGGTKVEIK" value_reported=10.52
